System: EKVX
TEST DETAILS: relative viability (nuclei count vs DMSO), 5 days (fraction); higher = more cells survive
DETAILS: first compound 0.03162 µM
VALUE KIND: relative viability
The response must contain the number and no unit.

Worked cases, relative viability given:
O=c1cc(N2CCOCC2)oc2c(-c3cccc4c3sc3ccccc34)cccc12 + CC1(C)CCC(c2ccc(Cl)cc2)=C(CN2CCN(c3ccc(C(=O)NS(=O)(=O)c4ccc(N[C@H](CCN5CCOCC5)CSc5ccccc5)c(S(=O)(=O)C(F)(F)F)c4)cc3)CC2)C1 [Navitoclax] (partner 0.5 µM)	0.903
CCN(CC)CCCCNc1ncc2cc(-c3cc(OC)cc(OC)c3)c(NC(=O)NC(C)(C)C)nc2n1 + Cc1nc(NC(=O)N2CCC[C@H]2C(N)=O)sc1-c1ccnc(C(C)(C)C(F)(F)F)c1 [Alpelisib] (partner 2 µM)	0.898

Look up relative viability with EKVX for this compound: CCN(CC)CCCCNc1ncc2cc(-c3cc(OC)cc(OC)c3)c(NC(=O)NC(C)(C)C)nc2n1 + O=C(CCCCCCC(=O)Nc1ccccc1)NO [Vorinostat] (partner 1 µM) 0.734
